B1: Pistol ribozyme (parent)
chain: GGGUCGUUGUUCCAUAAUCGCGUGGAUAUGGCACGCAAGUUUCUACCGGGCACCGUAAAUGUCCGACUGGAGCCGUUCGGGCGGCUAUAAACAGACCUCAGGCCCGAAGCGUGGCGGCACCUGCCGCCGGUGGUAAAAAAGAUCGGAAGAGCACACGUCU

# Variants of: B1
# test-protocol: aptazyme ON/OFF ratio, guanine; higher = stronger switching; co-transcriptional cleavage with and without guanine
property-name: aptazyme ON/OFF ratio
Answer with a bare number; do not write a unit.

The examples below pair each entry with its known result.
mutant-label | recorded-measurement
U7A G9U U10A U11C C12U C13U | 1.18
U7A G9C U10A U11G C13U | 1.09

Record U7A G9C U10C U11A , field aptazyme ON/OFF ratio: 1.07

Record U7A U8A U10A U11G C12G C13G , field aptazyme ON/OFF ratio: 1.6

Record U7C U8C G9U U11G C13G , field aptazyme ON/OFF ratio: 1.05

Record U7G U8G G9C U10A U11G C12A C13A , field aptazyme ON/OFF ratio: 1.07

Record U7C U8C G9C C12A C13G , field aptazyme ON/OFF ratio: 1.06

Record U7G U8G G9A U11G C12A , field aptazyme ON/OFF ratio: 1.28

Record U7C U8G U10C C12A C13G , field aptazyme ON/OFF ratio: 1.1
